B1: LINE1-full (parent)
chain: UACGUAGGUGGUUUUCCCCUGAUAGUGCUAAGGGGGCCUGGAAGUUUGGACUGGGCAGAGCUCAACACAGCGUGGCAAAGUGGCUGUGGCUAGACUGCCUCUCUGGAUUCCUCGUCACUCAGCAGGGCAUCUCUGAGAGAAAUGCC

variants of: B1; experiment: self-cleavage, relative activity (ratio to wild type); higher = more cleavage; in vitro, sequencing; the parent is a self-cleaving ribozyme
# binarize self-cleavage: threshold 1 inclusive, high side condition met, low side condition not met

Variant Key	Label Value
A79G C98G	condition not met
U62C U134C	condition not met
U108C A124U	condition met
A22U	condition met
U73G U130C	condition met
U119C U143A	condition met
A24U U29A	condition met
G32A U52A	condition met
U14G U39C	condition met
A94U A136G	condition not met
U14C U132C	condition met
U26C C95U	condition not met
A43U U47A	condition met
U9C G105A	condition met

Ref: the RNAGym collection of RNA variant scans (doi:10.7554/elife.90254)
